assay: Saturated solubility in buffer solutions and bio-relevant media at 37° C. (Example 6); format: physicochemical; conditions: thermodynamic from solid; FeSSIF (pH 5.0), 30 min, 37° C.
Result type: solubility at 30 min (µg/mL)
Reply numerically in µg/mL, unit not repeated.

Just so you know, measured solubility at 30 min for CCCCCCCCCCCCCCCCCCCC(=O)N[C@H]1CCC2(C)C(CC(O)C3C2C[C@H](O)C2(C)C(C(C)CCC(=O)O)CCC32)C1 (stereo in doubt) [Aramchol (free acid), reference compound] came out at 660

----------
Experiment: Aqueous solubility at 20° C., shake-flask, stepwise water addition (Example 2)
Assay type: physicochemical
Details: water, 20 °C, water, thermodynamic from solid, 20° C.; XRPD: Poorly crystalline
Method: The Aramchol salts of the present invention were further assessed for their solubility in water. […] 5 mg of each salt was weighed. Water was added stepwise until a clear solution was obtained (Table 2, solubility in water). The pH of each solution was measured (Table 2, pH after solubility).
Result type: solubility

Just so you know, measured solubility for CCCCCCCCCCCCCCCCCCCC(=O)N[C@H]1CC[C@@]2(C)[C@@H](C1)C[C@@H](O)[C@@H]1[C@@H]2C[C@H](O)[C@]2(C)[C@@H]([C@H](C)CCC(=O)O)CC[C@@H]12 came out at < 11 mg/mL

----------
test: physchem; settings: 50 °C, organic solvent or mixture
Result type: solubility at 2 h

Just so you know, measured solubility at 2 h for CCCCCCCCCCCCCCCCCCCC(=O)N[C@H]1CC[C@@]2(C)[C@@H](C1)C[C@@H](O)[C@@H]1[C@@H]2C[C@H](O)[C@]2(C)[C@@H]([C@H](C)CCC(=O)O)CC[C@@H]12 [Tromethamine] came out at > 50 mg/mL

----------
Consider the following compounds; for each one, report its Cmax.
experiment: In vivo permeability / PK after intrajejunal administration in cannulated rats (Example 7); parameters: species or system male Wistar rats; settings: male, Wistar, rat, 100 mg/kg (based on free acid) in PBS 30 mg/mL, plasma Aramchol (free acid), mean ± standard error, read-out: Cmax
Reply numerically in ng/mL, unit not repeated.

Just so you know, measured Cmax for CCCCCCCCCCCCCCCCCCCC(=O)N[C@H]1CCC2(C)C(CC(O)C3C2C[C@H](O)C2(C)C(C(C)CCC(=O)O)CCC32)C1 (stereo in doubt) [Aramchol (free acid), reference compound] came out at 1360

Just so you know, measured Cmax for CCCCCCCCCCCCCCCCCCCC(=O)N[C@H]1CC[C@@]2(C)[C@@H](C1)C[C@@H](O)[C@@H]1[C@@H]2C[C@H](O)[C@]2(C)[C@@H]([C@H](C)CCC(=O)O)CC[C@@H]12 came out at 2250

----------
Test: in vivo
Settings: dog, in vivo, po, 100 mg, Half-life
Description: Capsules containing 100 mg of Aramchol were dosed to dogs as either the free acid or the meglumine salt. The complete data-set across all animals and time-points for each dose form (free acid or meglumine salt) were fit to single compartment PK models with first order rate of absorption Ka (h−1) and elimination parameterised by CL and V (rate of elimination=CL/V, h−1). For the meglumine salt group, the first dose data for M5 was removed. […]
Result type: Half-life (h)
Reply numerically in h, unit not repeated.

Just so you know, measured Half-life for CCCCCCCCCCCCCCCCCCCC(=O)N[C@H]1CCC2(C)C(CC(O)C3C2C[C@H](O)C2(C)C(C(C)CCC(=O)O)CCC32)C1 (stereo in doubt) [Aramchol (free acid), reference compound] came out at 25.9
